# study target: recombinant homotrimeric HA A/common magpie/Hong Kong/5052/07 H5N1 (Influenza A virus A/common magpie/Hong Kong/5052/2007(H5N1))
# assay overview: protein microarray, purified IgG, trimeric HA
# study conditions: remark: other sources report otherwise
outcome measure: Trimeric HA Binding: RLU (RLU)

>>> endpoint_value("TCN-535 (5246_P19) (antibody, V domains shown) VH: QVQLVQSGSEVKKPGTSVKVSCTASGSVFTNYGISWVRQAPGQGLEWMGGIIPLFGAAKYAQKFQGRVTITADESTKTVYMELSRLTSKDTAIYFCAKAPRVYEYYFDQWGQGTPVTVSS VL: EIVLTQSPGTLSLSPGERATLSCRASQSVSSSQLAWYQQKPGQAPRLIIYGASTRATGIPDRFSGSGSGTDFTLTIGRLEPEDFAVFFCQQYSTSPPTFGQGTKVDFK")
20400
>>> endpoint_value("TCN-530 (5248_H10a) (antibody, V domains shown) VH: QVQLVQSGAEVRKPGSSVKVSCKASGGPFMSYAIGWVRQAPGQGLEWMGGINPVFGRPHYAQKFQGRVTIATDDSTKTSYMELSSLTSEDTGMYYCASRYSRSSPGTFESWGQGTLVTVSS VL: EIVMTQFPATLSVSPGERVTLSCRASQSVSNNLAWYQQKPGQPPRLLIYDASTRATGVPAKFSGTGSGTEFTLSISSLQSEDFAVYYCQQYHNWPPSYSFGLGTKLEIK")
10300

Entry source: patent US20150086555A1
